TESTED TARGET: RET (Homo sapiens, UniProt P07949)
Sequence (P07949 29-1114): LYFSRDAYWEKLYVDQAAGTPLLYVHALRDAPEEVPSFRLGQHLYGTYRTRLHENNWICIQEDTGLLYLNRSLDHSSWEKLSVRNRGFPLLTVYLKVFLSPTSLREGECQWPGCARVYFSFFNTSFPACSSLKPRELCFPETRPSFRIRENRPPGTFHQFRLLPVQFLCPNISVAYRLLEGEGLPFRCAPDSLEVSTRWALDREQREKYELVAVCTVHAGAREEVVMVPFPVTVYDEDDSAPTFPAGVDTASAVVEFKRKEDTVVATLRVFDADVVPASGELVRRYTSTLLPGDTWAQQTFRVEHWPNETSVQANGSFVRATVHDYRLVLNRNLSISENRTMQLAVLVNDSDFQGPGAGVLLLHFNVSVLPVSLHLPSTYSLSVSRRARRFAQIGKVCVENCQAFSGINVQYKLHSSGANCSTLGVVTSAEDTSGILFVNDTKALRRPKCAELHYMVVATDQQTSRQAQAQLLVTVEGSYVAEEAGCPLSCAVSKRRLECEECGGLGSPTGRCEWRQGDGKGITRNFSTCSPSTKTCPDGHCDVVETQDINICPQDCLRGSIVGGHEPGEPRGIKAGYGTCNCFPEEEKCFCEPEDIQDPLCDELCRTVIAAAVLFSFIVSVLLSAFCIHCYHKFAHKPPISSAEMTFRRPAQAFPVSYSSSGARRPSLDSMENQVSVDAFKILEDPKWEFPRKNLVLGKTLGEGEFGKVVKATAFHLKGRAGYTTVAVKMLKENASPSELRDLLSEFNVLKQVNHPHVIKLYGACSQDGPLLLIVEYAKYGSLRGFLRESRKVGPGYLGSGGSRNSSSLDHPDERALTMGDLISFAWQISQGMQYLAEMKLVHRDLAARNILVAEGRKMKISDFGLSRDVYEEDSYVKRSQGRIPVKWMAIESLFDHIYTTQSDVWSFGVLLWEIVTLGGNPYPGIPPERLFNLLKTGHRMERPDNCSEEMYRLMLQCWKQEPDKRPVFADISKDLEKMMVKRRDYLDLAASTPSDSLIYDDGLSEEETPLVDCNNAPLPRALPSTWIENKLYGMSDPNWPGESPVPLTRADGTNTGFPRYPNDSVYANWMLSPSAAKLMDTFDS
EXPERIMENT SUMMARY: Radiometric phosphotransferase assay, panel of 320 protein kinases
Format: biochemical
READOUT KIND: IC50 (nM)
Give a bare numeral; the unit nM is implied.

Given the molecule Nc1ncc(-c2cnn(C3CCNCC3)c2)cc1-c1nnc(CC2CC2)o1 , what is its reported IC50?
28

----------
EXPERIMENT SUMMARY: in vitro
CONDITION PARAMETERS: human
READOUT KIND: viability at 10 µM (%)
Quick note: give the figure in %, leave out the unit.

Can you share its viability at 10 µM? I mean this compound: Nc1ncc(-c2cnn(C3CCNCC3)c2)cc1-c1nnc(CC2CC2)o1 [SLC-391]
80

----------
TESTED TARGET: c-MET (Homo sapiens)
Sequence (P08581 25-1390): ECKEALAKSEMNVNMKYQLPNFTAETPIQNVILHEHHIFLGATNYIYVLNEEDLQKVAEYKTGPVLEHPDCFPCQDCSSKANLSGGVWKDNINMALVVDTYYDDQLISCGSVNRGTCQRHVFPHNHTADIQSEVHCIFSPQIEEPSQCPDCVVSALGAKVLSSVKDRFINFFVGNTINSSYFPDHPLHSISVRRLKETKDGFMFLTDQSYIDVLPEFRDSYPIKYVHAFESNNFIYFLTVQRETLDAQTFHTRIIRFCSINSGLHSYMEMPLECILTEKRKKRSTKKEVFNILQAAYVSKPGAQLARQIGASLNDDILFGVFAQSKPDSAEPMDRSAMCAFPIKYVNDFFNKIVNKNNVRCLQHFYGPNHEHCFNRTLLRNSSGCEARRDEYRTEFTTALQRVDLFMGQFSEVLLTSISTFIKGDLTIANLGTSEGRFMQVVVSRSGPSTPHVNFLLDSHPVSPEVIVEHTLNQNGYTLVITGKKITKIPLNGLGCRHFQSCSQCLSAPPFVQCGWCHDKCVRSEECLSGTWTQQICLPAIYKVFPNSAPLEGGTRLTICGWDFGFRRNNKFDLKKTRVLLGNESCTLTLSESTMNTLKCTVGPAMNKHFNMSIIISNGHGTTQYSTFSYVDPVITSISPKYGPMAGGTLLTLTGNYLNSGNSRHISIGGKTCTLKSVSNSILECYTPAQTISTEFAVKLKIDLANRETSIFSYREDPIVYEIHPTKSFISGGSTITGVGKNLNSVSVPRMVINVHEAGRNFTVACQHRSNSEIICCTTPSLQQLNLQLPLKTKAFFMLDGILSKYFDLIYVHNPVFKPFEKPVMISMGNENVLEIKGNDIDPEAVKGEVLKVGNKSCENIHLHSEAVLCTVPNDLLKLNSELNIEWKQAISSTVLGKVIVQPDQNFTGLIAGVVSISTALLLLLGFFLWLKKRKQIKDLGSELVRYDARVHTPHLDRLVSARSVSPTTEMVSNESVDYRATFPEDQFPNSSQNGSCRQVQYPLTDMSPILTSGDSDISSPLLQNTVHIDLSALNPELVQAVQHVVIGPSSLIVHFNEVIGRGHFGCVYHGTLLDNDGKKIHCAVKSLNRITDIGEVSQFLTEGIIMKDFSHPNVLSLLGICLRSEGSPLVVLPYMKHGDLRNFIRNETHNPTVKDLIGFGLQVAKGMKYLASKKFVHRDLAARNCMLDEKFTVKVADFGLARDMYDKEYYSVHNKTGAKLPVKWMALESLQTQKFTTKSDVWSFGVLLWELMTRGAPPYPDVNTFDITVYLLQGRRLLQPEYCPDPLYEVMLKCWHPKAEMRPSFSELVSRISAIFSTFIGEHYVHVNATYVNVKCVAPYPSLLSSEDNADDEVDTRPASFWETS
READOUT KIND: pIC50
// field semantics: pIC50 = negative decimal log of concentration (mol/L)

I have this compound here, Nc1ncc(-c2cnn(C3CCNCC3)c2)cc1-c1nnc(CC2CC2)o1 , and I need its recorded pIC50.
7.92

----------
Test system: K562
EXPERIMENT SUMMARY: Cellular proliferation, K562
Assay type: cell-based
CONDITION PARAMETERS: Homo sapiens
READOUT KIND: IC50 (µM)
Answer in µM, number only, no unit symbol.

Look at this compound and give its reported IC50. Nc1ncc(-c2cnn(C3CCNCC3)c2)cc1-c1nnc(CC2CC2)o1
3.45

----------
TESTED TARGET: ALK1 (Homo sapiens, UniProt P37023)
Sequence (P37023 142-503 limits assumed): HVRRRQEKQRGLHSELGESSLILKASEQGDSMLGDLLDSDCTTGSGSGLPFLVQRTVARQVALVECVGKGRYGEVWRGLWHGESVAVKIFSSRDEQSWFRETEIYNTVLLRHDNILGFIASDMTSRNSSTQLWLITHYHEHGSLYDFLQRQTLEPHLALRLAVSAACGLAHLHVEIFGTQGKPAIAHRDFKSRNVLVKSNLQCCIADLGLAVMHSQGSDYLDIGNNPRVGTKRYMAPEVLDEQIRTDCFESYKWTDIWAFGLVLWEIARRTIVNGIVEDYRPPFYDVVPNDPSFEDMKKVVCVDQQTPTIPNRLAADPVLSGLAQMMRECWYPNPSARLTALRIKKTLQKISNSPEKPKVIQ
EXPERIMENT SUMMARY: Radiometric phosphotransferase assay, panel of 320 protein kinases
Format: biochemical
READOUT KIND: IC50 (nM)
Give just the numeric value; nM need not be written.

Could you share what IC50 was measured for Nc1ncc(-c2cnn(C3CCNCC3)c2)cc1-c1nnc(CC2CC2)o1 , tested on ALK1 (Homo sapiens, UniProt P37023)?
31

----------
System: human influenza virus (FluAPR834)
EXPERIMENT SUMMARY: microbe, parasite or virus in culture
CONDITION PARAMETERS: unidentified influenza virus, RPMI-2650, in Homo sapiens, 96 h, read-out: EC50 (inhibit CPE by 50%)
READOUT KIND: EC50 (µM)
Kindly answer with a numeric value in µM, unit omitted.

Entry Nc1ncc(-c2cnn(C3CCNCC3)c2)cc1-c1nnc(CC2CC2)o1 : reported EC50 = ?
0.14

----------
EXPERIMENT SUMMARY: in vitro
CONDITION PARAMETERS: human
READOUT KIND: viability at 0.4 µM (%)
All answers are understood in %, so give the number only.

Entry Nc1ncc(-c2cnn(C3CCNCC3)c2)cc1-c1nnc(CC2CC2)o1 has what viability at 0.4 µM?
95

----------
EXPERIMENT SUMMARY: in vitro
CONDITION PARAMETERS: human
READOUT KIND: viability at 0.003 µM (%)
Your answer is read as %, so omit the unit and give the number.

Query (compound): Nc1ncc(-c2cnn(C3CCNCC3)c2)cc1-c1nnc(CC2CC2)o1 ; field requested: viability at 0.003 µM
100

----------
TESTED TARGET: AXL (Homo sapiens, UniProt P30530)
Sequence (P30530 26-894): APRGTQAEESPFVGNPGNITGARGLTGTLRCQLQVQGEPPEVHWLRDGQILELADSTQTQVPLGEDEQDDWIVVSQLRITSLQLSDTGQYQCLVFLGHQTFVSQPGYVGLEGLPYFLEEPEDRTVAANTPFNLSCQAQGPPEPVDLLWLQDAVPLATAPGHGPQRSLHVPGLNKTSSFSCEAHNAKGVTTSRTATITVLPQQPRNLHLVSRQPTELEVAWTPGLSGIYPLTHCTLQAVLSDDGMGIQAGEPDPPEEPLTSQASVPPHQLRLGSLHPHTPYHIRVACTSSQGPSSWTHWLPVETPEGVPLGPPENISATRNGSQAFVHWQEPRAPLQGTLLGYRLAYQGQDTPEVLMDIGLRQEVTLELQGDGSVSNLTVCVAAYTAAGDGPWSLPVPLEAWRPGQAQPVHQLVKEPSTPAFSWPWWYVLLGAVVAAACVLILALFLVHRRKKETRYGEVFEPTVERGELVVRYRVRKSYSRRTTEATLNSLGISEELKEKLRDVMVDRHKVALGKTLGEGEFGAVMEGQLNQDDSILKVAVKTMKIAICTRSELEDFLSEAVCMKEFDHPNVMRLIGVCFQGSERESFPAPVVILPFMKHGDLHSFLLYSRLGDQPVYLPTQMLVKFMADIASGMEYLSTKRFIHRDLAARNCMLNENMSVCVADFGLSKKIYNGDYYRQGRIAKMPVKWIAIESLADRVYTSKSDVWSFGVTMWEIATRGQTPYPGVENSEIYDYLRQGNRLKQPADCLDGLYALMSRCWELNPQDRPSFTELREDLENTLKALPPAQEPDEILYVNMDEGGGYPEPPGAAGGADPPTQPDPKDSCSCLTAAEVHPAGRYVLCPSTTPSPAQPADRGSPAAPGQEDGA
READOUT KIND: IC50 (nM)
// return numeric value only (unit: nM, not printed)

Short answer please: IC50, AXL (Homo sapiens, UniProt P30530), entry Nc1ncc(-c2cnn(C3CCNCC3)c2)cc1-c1nnc(CC2CC2)o1 [SLC-391]
9.6
